- Tested on: Strept. agalactiae L310
- PROTOCOL_DESCRIPTION: MIC by microbroth dilution
- Type: cell-based, Streptococcus agalactiae
- CONDITIONS: 0,01% BSA, 10^4 CFU/ml, 18-24 h, Todd Hewitt broth
QUANTITY_KIND: MIC of the compounds (µg/mL)

Solved cases below.
CNC(=O)CC1NC(=O)c2csc(n2)-c2ccc(-c3nc(C4=NC(C(=O)NC(C)C(=O)N(C)CCN(C)C)CO4)cs3)nc2-c2csc(n2)-c2csc(n2)C(C(O)c2ccccc2)NC(=O)CNC(=O)c2nc(sc2COC)C(C(C)C)NC(=O)c2nc1sc2C (mixture of isomers) ... 4
CNC(=O)CC1NC(=O)c2csc(n2)-c2ccc(-c3nc(C4=NC(C(=O)N5CCN(C)CC5)CO4)cs3)nc2-c2csc(n2)-c2csc(n2)C(C(O)c2ccccc2)NC(=O)CNC(=O)c2nc(sc2COC)C(C(C)C)NC(=O)c2nc1sc2C (mixture of isomers) ... 4

a. CNC(=O)CC1NC(=O)c2csc(n2)-c2ccc(-c3nc(C4=NC(C(=O)N5CCC(N(C)C)CC5)CO4)cs3)nc2-c2csc(n2)-c2csc(n2)C(C(O)c2ccccc2)NC(=O)CNC(=O)c2nc(sc2COC)C(C(C)C)NC(=O)c2nc1sc2C (mixture of isomers) [Compound 10]
b. CNC(=O)CC1NC(=O)c2csc(n2)-c2ccc(-c3nc(C4=NC(C(=O)N(C)CCN(C)CCN(C)C)CO4)cs3)nc2-c2csc(n2)-c2csc(n2)C(C(O)c2ccccc2)NC(=O)CNC(=O)c2nc(sc2COC)C(C(C)C)NC(=O)c2nc1sc2C (mixture of isomers)
Ask: Input pair: a , b . Output: entry with lower MIC of the compounds. Give the label under which the chosen entry appears.
Result: a
(a: 4 µg/mL, b: 8 µg/mL)

* * *

- System: Streptococcus pyogenes L49
- PROTOCOL_DESCRIPTION: MIC by microbroth dilution
- Assay type: cell-based
- CONDITIONS: 0,01% BSA, 10^4 CFU/ml, 18-24 h, Todd Hewitt broth
QUANTITY_KIND: MIC of the compounds (µg/mL)

Below, each entry is followed by its recorded MIC of the compounds result.
CNC(=O)CC1NC(=O)c2csc(n2)-c2ccc(-c3nc(C4=NC(C(=O)NCCN(C)C)CO4)cs3)nc2-c2csc(n2)-c2csc(n2)C(C(O)c2ccccc2)NC(=O)CNC(=O)c2nc(sc2COC)C(C(C)C)NC(=O)c2nc1sc2C (mixture of isomers) ... 4
CNC(=O)CC1NC(=O)c2csc(n2)-c2ccc(-c3nc(C4=NC(C(=O)N5CCC(N(C)C)CC5)CO4)cs3)nc2-c2csc(n2)-c2csc(n2)C(C(O)c2ccccc2)NC(=O)CNC(=O)c2nc(sc2COC)C(C(C)C)NC(=O)c2nc1sc2C (mixture of isomers) [Compound 10] ... 2

a. CCN(CC)CCN(CC)C(=O)C1COC(c2csc(-c3ccc4c(n3)-c3csc(n3)-c3csc(n3)C(C(O)c3ccccc3)NC(=O)CNC(=O)c3nc(sc3COC)C(C(C)C)NC(=O)c3nc(sc3C)C(CC(=O)NC)NC(=O)c3csc-4n3)n2)=N1 (mixture of isomers)
b. CNC(=O)CC1NC(=O)c2csc(n2)-c2ccc(-c3nc(C4=NC(C(=O)N(C)CCN5CCN(CCO)CC5)CO4)cs3)nc2-c2csc(n2)-c2csc(n2)C(C(O)c2ccccc2)NC(=O)CNC(=O)c2nc(sc2COC)C(C(C)C)NC(=O)c2nc1sc2C (stereo not shown) [Compound 19s]
Ask: Select the item whose MIC of the compounds value is smaller, choosing between a and b . Please respond with the label that marks your chosen entry.
Result: b
(b: 1 µg/mL, a: 2 µg/mL)

* * *

- Tested on: Streptococcus pyogenes L49
- PROTOCOL_DESCRIPTION: MIC by microbroth dilution
- Format: cell-based
- CONDITIONS: 0,01% BSA, 10^4 CFU/ml, 18-24 h, Todd Hewitt broth
QUANTITY_KIND: MIC of the compounds (µg/mL)

Some solved entries appear below for comparison.
CCN1CCCC1CNC(=O)C1COC(c2csc(-c3ccc4c(n3)-c3csc(n3)-c3csc(n3)C(C(O)c3ccccc3)NC(=O)CNC(=O)c3nc(sc3COC)C(C(C)C)NC(=O)c3nc(sc3C)C(CC(=O)NC)NC(=O)c3csc-4n3)n2)=N1 (mixture of isomers) ... 2
CNC(=O)CC1NC(=O)c2csc(n2)-c2ccc(-c3nc(C4=NC(C(=O)N5CCCC5CN(C)CCN(C)C)CO4)cs3)nc2-c2csc(n2)-c2csc(n2)C(C(O)c2ccccc2)NC(=O)CNC(=O)c2nc(sc2COC)C(C(C)C)NC(=O)c2nc1sc2C (mixture of isomers) ... 1

P. CNC(=O)CC1NC(=O)c2csc(n2)-c2ccc(-c3nc(C4=NC(C(=O)N(C)CCN(C)CCN(C)C)CO4)cs3)nc2-c2csc(n2)-c2csc(n2)C(C(O)c2ccccc2)NC(=O)CNC(=O)c2nc(sc2COC)C(C(C)C)NC(=O)c2nc1sc2C (mixture of isomers)
Q. CNC(=O)CC1NC(=O)c2csc(n2)-c2ccc(-c3nc(C4=NC(C(=O)NCCCN(C)C)CO4)cs3)nc2-c2csc(n2)-c2csc(n2)C(C(O)c2ccccc2)NC(=O)CNC(=O)c2nc(sc2COC)C(C(C)C)NC(=O)c2nc1sc2C (mixture of isomers)
Ask: Hi there! Just curious which has the higher MIC of the compounds between P and Q . Indicate your choice by writing its label.
Result: P
(P: 2 µg/mL, Q: 1 µg/mL)

* * *

- Tested on: Strept. sanguis L1721
- PROTOCOL_DESCRIPTION: MIC by microbroth dilution
- Type: cell-based, Streptococcus sanguis
- CONDITIONS: 0,01% BSA, 10^4 CFU/ml, 18-24 h, Todd Hewitt broth
QUANTITY_KIND: MIC of the compounds (µg/mL)

CNC(=O)CC1NC(=O)c2csc(n2)-c2ccc(-c3nc(C4=NC(C(=O)N5CCN(C)CC5)CO4)cs3)nc2-c2csc(n2)-c2csc(n2)C(C(O)c2ccccc2)NC(=O)CNC(=O)c2nc(sc2COC)C(C(C)C)NC(=O)c2nc1sc2C (mixture of isomers) [Compound 6] ... 0.25

1. CNC(=O)CC1NC(=O)c2csc(n2)-c2ccc(-c3nc(C4=NC(C(=O)N5CCC(N(C)C)CC5)CO4)cs3)nc2-c2csc(n2)-c2csc(n2)C(C(O)c2ccccc2)NC(=O)CNC(=O)c2nc(sc2COC)C(C(C)C)NC(=O)c2nc1sc2C (mixture of isomers) [Compound 10]
2. CNC(=O)CC1NC(=O)c2csc(n2)-c2ccc(-c3nc(C4=NC(C(=O)N(C)CCN(C)CCN(C)C)CO4)cs3)nc2-c2csc(n2)-c2csc(n2)C(C(O)c2ccccc2)NC(=O)CNC(=O)c2nc(sc2COC)C(C(C)C)NC(=O)c2nc1sc2C (mixture of isomers) [Compound 16]
Ask: Please tell me which of the two, 1 or 2 , has the higher reported MIC of the compounds value. To answer, give the label that identifies your chosen option.
Result: 1

* * *

- Test system: Strept. agalactiae L310
- PROTOCOL_DESCRIPTION: MIC by microbroth dilution
- Assay type: cell-based, Streptococcus agalactiae
- CONDITIONS: 0,01% BSA, 10^4 CFU/ml, 18-24 h, Todd Hewitt broth
QUANTITY_KIND: MIC of the compounds (µg/mL)

CNC(=O)CC1NC(=O)c2csc(n2)-c2ccc(-c3nc(C4=NC(C(=O)N(C)CCN(C)C)CO4)cs3)nc2-c2csc(n2)-c2csc(n2)C(C(O)c2ccccc2)NC(=O)CNC(=O)c2nc(sc2COC)C(C(C)C)NC(=O)c2nc1sc2C (mixture of isomers) [Compound 4] ... 0.5
CCN1CCCC1CNC(=O)C1COC(c2csc(-c3ccc4c(n3)-c3csc(n3)-c3csc(n3)C(C(O)c3ccccc3)NC(=O)CNC(=O)c3nc(sc3COC)C(C(C)C)NC(=O)c3nc(sc3C)C(CC(=O)NC)NC(=O)c3csc-4n3)n2)=N1 (mixture of isomers) ... 2

P. CCN(CC)CCNC(=O)C1COC(c2csc(-c3ccc4c(n3)-c3csc(n3)-c3csc(n3)C(C(O)c3ccccc3)NC(=O)CNC(=O)c3nc(sc3COC)C(C(C)C)NC(=O)c3nc(sc3C)C(CC(=O)NC)NC(=O)c3csc-4n3)n2)=N1 (mixture of isomers)
Q. CCN(CC)CCN(CC)C(=O)C1COC(c2csc(-c3ccc4c(n3)-c3csc(n3)-c3csc(n3)C(C(O)c3ccccc3)NC(=O)CNC(=O)c3nc(sc3COC)C(C(C)C)NC(=O)c3nc(sc3C)C(CC(=O)NC)NC(=O)c3csc-4n3)n2)=N1 (mixture of isomers)
R. CNC(=O)CC1NC(=O)c2csc(n2)-c2ccc(-c3nc(C4=NC(C(=O)N5CCC(N(C)C)CC5)CO4)cs3)nc2-c2csc(n2)-c2csc(n2)C(C(O)c2ccccc2)NC(=O)CNC(=O)c2nc(sc2COC)C(C(C)C)NC(=O)c2nc1sc2C (stereo not drawn) [Compound 10s]
S. CNC(=O)CC1NC(=O)c2csc(n2)-c2ccc(-c3nc(C4=NC(C(=O)N5CCN(CCCN(C)C)CC5)CO4)cs3)nc2-c2csc(n2)-c2csc(n2)C(C(O)c2ccccc2)NC(=O)CNC(=O)c2nc(sc2COC)C(C(C)C)NC(=O)c2nc1sc2C (mixture of isomers)
Ask: Arrange the 4 entries by MIC of the compounds so the values rise. Submit the labels in the order that the ranking request calls for.
Result: R, P, S, Q
(R: 2 µg/mL, P: 4 µg/mL, S: 8 µg/mL, Q: 32 µg/mL)
